Assay: Serum vancomycin plateau level in patients receiving continuous infusion vancomycin mixed in the CRRT solution
Assay type: in vivo, human
Details: human, serum, other: continuous infusion mixed in the CRRT solution; the one patient below 15 mg/L at 8 hours
measured.property: concentration at 8 h (ng/mL)
Hi! Could you send only the number? It should be in ng/mL, unit omitted.

// sample CN[C@H](CC(C)C)C(=O)N[C@H]1C(=O)N[C@@H](CC(N)=O)C(=O)N[C@H]2C(=O)N[C@H]3C(=O)N[C@H](C(=O)N[C@H](C(=O)O)c4cc(O)cc(O)c4-c4cc3ccc4O)[C@H](O)c3ccc(c(Cl)c3)Oc3cc2cc(c3O[C@@H]2O[C@H](CO)[C@@H](O)[C@H](O)[C@H]2O[C@H]2C[C@](C)(N)[C@H](O)[C@H](C)O2)Oc2ccc(cc2Cl)[C@H]1O , its concentration at 8 h was 12900
